- protocol: Drug degradation in Sprague-Dawley rat liver microsomes at 10 uM pretreated for 30 mins with NADPH regenerating system followed by incubation with microsomes for 30 mins by HPLC analysis
- Assay type: ADME, Microsome
- test conditions: time 60 min, read-out: Drug degradation
measured metric: metabolised at 1 h, 10 µM (%)

>>> experimental_result("Cc1cc(C(=O)N2CCN(C(c3ccccc3)c3ccccc3)CC2)nn1C")
100

###

- tgt: Nuclear receptor subfamily 2 group E member 1 (Homo sapiens)
- Sequence (Q9Y466 whole entry, the tested form may be a part): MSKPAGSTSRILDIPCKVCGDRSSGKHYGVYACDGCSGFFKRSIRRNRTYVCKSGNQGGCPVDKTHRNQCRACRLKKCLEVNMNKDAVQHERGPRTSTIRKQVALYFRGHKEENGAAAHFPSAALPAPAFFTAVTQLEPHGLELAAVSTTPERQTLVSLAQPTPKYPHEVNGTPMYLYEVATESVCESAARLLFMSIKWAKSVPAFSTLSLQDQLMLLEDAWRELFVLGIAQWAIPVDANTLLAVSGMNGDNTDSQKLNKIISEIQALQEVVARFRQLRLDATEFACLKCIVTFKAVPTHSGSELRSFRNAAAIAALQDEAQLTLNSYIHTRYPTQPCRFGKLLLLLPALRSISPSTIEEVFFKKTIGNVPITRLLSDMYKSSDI
- protocol: Binding affinity to recombinant TLX LBD (unknown origin) by differential scanning fluorometry
measured metric: Kd (nM)

>>> experimental_result("CCCCOc1cc(C(=O)Nc2cc(-n3cnc(C)c3)cc(C(F)(F)F)c2)c2ccccc2n1")
1600

Data credit: ChEMBL document CHEMBL5042518
